Target: ENPP1 (Homo sapiens, UniProt P22413)
Sequence (P22413 whole entry, species assumed): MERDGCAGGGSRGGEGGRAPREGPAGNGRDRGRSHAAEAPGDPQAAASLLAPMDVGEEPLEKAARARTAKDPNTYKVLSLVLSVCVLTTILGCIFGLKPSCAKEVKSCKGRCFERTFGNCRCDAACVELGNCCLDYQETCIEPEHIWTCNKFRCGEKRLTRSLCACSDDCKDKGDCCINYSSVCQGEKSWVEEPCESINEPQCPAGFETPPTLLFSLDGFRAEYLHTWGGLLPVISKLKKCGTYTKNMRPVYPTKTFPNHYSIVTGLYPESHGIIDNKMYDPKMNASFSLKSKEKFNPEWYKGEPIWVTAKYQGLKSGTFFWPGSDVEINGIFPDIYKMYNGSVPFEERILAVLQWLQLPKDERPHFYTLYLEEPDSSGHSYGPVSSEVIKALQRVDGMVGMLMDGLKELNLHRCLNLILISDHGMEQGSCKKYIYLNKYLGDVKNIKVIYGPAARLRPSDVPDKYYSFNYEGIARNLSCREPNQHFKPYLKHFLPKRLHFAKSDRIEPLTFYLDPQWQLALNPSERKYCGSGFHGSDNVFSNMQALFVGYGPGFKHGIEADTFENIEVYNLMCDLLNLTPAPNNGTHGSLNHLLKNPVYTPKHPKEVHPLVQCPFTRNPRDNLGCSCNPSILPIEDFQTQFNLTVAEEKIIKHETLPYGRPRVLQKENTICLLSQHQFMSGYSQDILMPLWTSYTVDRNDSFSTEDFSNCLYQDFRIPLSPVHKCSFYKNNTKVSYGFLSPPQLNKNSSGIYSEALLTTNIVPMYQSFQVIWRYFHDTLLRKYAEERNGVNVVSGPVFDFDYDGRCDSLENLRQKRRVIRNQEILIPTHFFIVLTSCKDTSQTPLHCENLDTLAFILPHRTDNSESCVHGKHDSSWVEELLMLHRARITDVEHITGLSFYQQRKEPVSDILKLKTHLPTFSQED
Test: Measurement of pNP-TMP hydrolysis by ENPP1
Format: biochemical
Settings: pNP-TMP substrate 500 μM, Km 232 μM; Ki from IC50 by Cheng-Prusoff
Exercise: for every item that follows, state its recorded Ki.

Query block: Return value of Ki for input CS(=N)(=O)c1cccc(COc2ccnc3cnccc23)c1 (centres unmarked) , no commentary.
Result block: < 10 nM

Query block: Respond only with Ki recorded for COc1nccc2c(OCc3cc(F)cc([S@](=N)(=O)C4CC4)c3)ccnc12 (single isomer, unassigned)
Result block: < 10 nM

Query block: Kindly indicate its recorded Ki. Item: CS(=N)(=O)CCC1(O)CCN(c2ccnc3c(OCF)nccc23)CC1 (centres unmarked)
Result block: 10 to 100 nM

Query block: Give a short answer stating reported Ki for CN=S(C)(=O)N1CCC2(CCN(c3ccnc4c(OC)nccc34)C2)C1 (centres unmarked) .
Result block: 100 to 10000 nM

Query block: Provide measured Ki value, entry: N=S(=O)(c1cccc(COc2ccnc3c(OCF)nccc23)c1)C1CC1 (racemic)
Result block: < 10 nM

Query block: Output Ki of CCOc1nccc2c(N3CCC(O)(CS(C)(=N)=O)CC3)ccnc12 (centres unmarked)
Result block: < 10 nM

Query block: Identify Ki associated with the compound CS(=N)(=O)c1ccc(COc2ccnc3cnccc23)cc1 (centres unmarked)
Result block: 10 to 100 nM

Query block: Check the records and state Ki for C[S@](=N)(=O)CC1(O)CCN(c2ccnc3c(OCF)nccc23)CC1 (single isomer, unassigned)
Result block: < 10 nM
